Each entry below lists one item and its recorded pIC50 value.
TGT: Receptor tyrosine-protein kinase erbB-2 [1-775,'YVMA',776-1255] (Homo sapiens)
Construct: 1-775,'YVMA',776-1255
TEST SUMMARY: Inhibitory Activity of Compounds Against HER2 A775_G776insYVMA mutant enzyme
pIC50: −log10 of the molar value.
MEASURE NAME: pIC50

>>> df
                            chemical_smiles  reading_qualifier  readout_number
0    C=CC(=O)Nc1cc(N)c(OC)cc1N(C)CCN1CCOCC1                  >            9.00
1  COc1cc(N2CCN(C)CC2)c(N)cc1Nc1ncc(Cl)c(Nc2ccccc2NS(C)(=O)=O)n1                  =            7.59
2  CS(=O)(=O)N1CCc2cccc(Nc3nc(Cl)ncc3C(F)(F)F)c21                  =            8.30
3  C=CC(=O)Nc1cc(Nc2ncc(Cl)c(Nc3ccccc3NS(C)(=O)=O)n2)c(OC)cc1N(C)CCN(C)C(=O)OCc1ccccc1                  =            7.57
4  CS(=O)(=O)N1CCCc2cccc(Nc3nc(Cl)ncc3Cl)c21                  >            9.00
5          C=CC(=O)Nc1cc(N)c(OC)cc1OCCN(C)C                  =            7.21
6  Cc1ccc(S(=O)(=O)Nc2ccccc2Nc2nc(Cl)ncc2C)cc1                  =            8.22
7   CC(=O)N(C)c1c(Nc2nc(Cl)ncc2Cl)ccc(C)c1C                  =            6.80
8  Cc1ccc(Nc2nc(Cl)ncc2Cl)c(N(C)S(C)(=O)=O)c1C                  =            8.00

* * *

Each entry below lists one item and its recorded pIC50 value.
TGT: Receptor tyrosine-protein kinase erbB-2 [1-775,'YVMA',776-1255] (Homo sapiens)
Construct: 1-775,'YVMA',776-1255
TEST SUMMARY: Inhibitory Activity of Compounds Against HER2 A775_G776insYVMA mutant enzyme
pIC50: −log10 of the molar value.
MEASURE NAME: pIC50

In [3]: df
Out[3]:
                             chemical_smiles                                       tgt  reading_qualifier  readout_number
 0    CS(=O)(=O)Nc1c(Cl)cccc1Nc1nc(Cl)ncc1Cl  Receptor tyrosine-protein kinase erbB-2 [1-775,'YVMA',776-1255] (Homo sapiens)                  =            8.22
 1  Cc1cnc(Cl)nc1Nc1ccccc1NS(=O)(=O)c1ccccc1  Receptor tyrosine-protein kinase erbB-2 [1-775,'YVMA',776-1255] (Homo sapiens)                  =            7.15
 2   CCc1cccc(Nc2nc(Cl)ncc2Cl)c1NS(=O)(=O)CC  Receptor tyrosine-protein kinase erbB-2 [1-775,'YVMA',776-1255] (Homo sapiens)                  =            8.40
 3                 CC(=O)N(C)c1c(N)ccc(C)c1C  Receptor tyrosine-protein kinase erbB-2 [1-775,'YVMA',776-1255] (Homo sapiens)                  =            6.06
 4         CC(=O)Nc1c([N+](=O)[O-])ccc(C)c1C  Receptor tyrosine-protein kinase erbB-2 [1-775,'YVMA',776-1255] (Homo sapiens)                  =            6.43
 5    CCS(=O)(=O)N(C)c1ccccc1Nc1nc(Cl)ncc1Cl  Receptor tyrosine-protein kinase erbB-2 [1-775,'YVMA',776-1255] (Homo sapiens)                  =            8.40
 6        CCS(=O)(=O)Nc1ccccc1Nc1nc(Cl)ncc1C  Receptor tyrosine-protein kinase erbB-2 [1-775,'YVMA',776-1255] (Homo sapiens)                  =            7.52
 7  C=CC(=O)Nc1cc(Nc2ncc(Cl)c(Nc3ccccc3NS(C)(=O)=O)n2)c(OC)cc1N(C)CCN(C(=O)OCc1ccccc1)C(C)C  Receptor tyrosine-protein kinase erbB-2 [1-775,'YVMA',776-1255] (Homo sapiens)                  =            8.15
 8         Cc1cnc(Cl)nc1Nc1ccccc1NS(C)(=O)=O  Receptor tyrosine-protein kinase erbB-2 [1-775,'YVMA',776-1255] (Homo sapiens)                  =            7.57
 9         CC(=O)Nc1c(C)cccc1Nc1nc(Cl)ncc1Cl  Receptor tyrosine-protein kinase erbB-2 [1-775,'YVMA',776-1255] (Homo sapiens)                  =            6.32
10       C=CC(=O)Nc1cc(N)c(OC)cc1OCCN1CCOCC1  Receptor tyrosine-protein kinase erbB-2 [1-775,'YVMA',776-1255] (Homo sapiens)                  =            9.00
11  COC(=O)c1cnc(Cl)nc1Nc1cccc2c1N(S(C)(=O)=O)CC2  Receptor tyrosine-protein kinase erbB-2 [1-775,'YVMA',776-1255] (Homo sapiens)                  =            8.22
12    CCN(c1ccccc1Nc1nc(Cl)ncc1Cl)S(C)(=O)=O  Receptor tyrosine-protein kinase erbB-2 [1-775,'YVMA',776-1255] (Homo sapiens)                  =            8.05
13  Cc1ccc(S(=O)(=O)Nc2ccccc2Nc2nc(Cl)ncc2F)cc1  Receptor tyrosine-protein kinase erbB-2 [1-775,'YVMA',776-1255] (Homo sapiens)                  =            7.52
14       C=CC(=O)Nc1cc(N)c(OC)cc1OCCN1CCCCC1  Receptor tyrosine-protein kinase erbB-2 [1-775,'YVMA',776-1255] (Homo sapiens)                  >            9.00
15  C=CC(=O)Nc1cc(N)c(OC)cc1N(C)CCN(C)C(=O)OCc1ccccc1  Receptor tyrosine-protein kinase erbB-2 [1-775,'YVMA',776-1255] (Homo sapiens)                  =            7.70
16  CS(=O)(=O)n1ccc2cccc(Nc3nc(Cl)ncc3Cl)c21  Receptor tyrosine-protein kinase erbB-2 [1-775,'YVMA',776-1255] (Homo sapiens)                  >            9.00
17      C=CC(=O)Nc1cc(N)c(OC)cc1N(C)CCN1CCC1  Receptor tyrosine-protein kinase erbB-2 [1-775,'YVMA',776-1255] (Homo sapiens)                  =            8.70
18     CN(c1ccccc1Nc1nc(Cl)ncc1Cl)S(C)(=O)=O  Receptor tyrosine-protein kinase erbB-2 [1-775,'YVMA',776-1255] (Homo sapiens)                  =            8.10
19  CS(=O)(=O)N1CCc2cccc(Nc3nc(Cl)ncc3Cl)c21  Receptor tyrosine-protein kinase erbB-2 [1-775,'YVMA',776-1255] (Homo sapiens)                  =            7.82
20  CC(C)OC(=O)c1cnc(Cl)nc1Nc1cccc2c1N(S(C)(=O)=O)CC2  Receptor tyrosine-protein kinase erbB-2 [1-775,'YVMA',776-1255] (Homo sapiens)                  =            8.22
